Value source: patent US20100292231A1

studySystem: FLT3 (Homo sapiens, UniProt P36888)
Construct: purchased Invitrogen (SelectScreen platform)
Sequence (P36888 27-993): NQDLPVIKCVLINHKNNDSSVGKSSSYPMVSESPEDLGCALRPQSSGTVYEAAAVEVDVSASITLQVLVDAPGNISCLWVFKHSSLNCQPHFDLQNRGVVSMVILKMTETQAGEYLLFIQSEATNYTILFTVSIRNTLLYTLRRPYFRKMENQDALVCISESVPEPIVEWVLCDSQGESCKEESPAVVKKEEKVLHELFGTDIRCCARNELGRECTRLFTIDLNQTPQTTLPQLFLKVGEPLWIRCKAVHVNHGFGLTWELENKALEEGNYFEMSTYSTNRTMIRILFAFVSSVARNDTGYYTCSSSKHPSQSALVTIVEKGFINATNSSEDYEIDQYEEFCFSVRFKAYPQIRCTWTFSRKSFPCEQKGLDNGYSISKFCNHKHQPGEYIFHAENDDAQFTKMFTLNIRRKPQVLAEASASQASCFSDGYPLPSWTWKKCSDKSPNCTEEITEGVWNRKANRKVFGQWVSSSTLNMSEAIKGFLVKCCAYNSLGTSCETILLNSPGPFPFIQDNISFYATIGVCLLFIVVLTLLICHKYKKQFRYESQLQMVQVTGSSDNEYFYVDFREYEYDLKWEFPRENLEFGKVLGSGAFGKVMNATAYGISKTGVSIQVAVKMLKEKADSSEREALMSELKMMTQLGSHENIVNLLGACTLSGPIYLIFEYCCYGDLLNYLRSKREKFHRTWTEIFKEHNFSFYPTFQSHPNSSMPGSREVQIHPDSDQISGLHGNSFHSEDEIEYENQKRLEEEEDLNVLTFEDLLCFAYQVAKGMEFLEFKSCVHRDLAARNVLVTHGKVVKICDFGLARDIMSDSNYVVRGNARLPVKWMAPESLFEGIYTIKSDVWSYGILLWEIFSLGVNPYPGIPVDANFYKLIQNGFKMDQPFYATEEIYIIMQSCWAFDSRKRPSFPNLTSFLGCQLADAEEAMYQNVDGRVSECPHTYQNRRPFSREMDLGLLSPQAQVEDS
protocolText: Kinase EC50 (10 pt curve or estimate, ATP Kmapp)
Assay type: biochemical
runConditions: from 10 pt curve or estimate based on 1 μm inhibition assay at ATP Kmapp
Could you please mark 1.0 for values of EC50 below 10 nM and 0.0 for values at or above it?

Prompt line: A record lists `CCN(CC)CCCNc1ccc2ncn3c4ccc5[nH]ncc5c4c(=O)c1c23` . Is its EC50 below 10 nM?
Response line: 0.0

Prompt line: A record lists `CN1CCN(CCCNc2ccc3ncn4c5ccc6[nH]ncc6c5c(=O)c2c34)CC1` . Is its EC50 below 10 nM?
Response line: 0.0

Prompt line: A record lists `CN(C)CCCNc1ccc2ncn3c4ccc5[nH]ncc5c4c(=O)c1c23` . Is its EC50 below 10 nM?
Response line: 0.0

Prompt line: A record lists CCN(CC)CCNc1ccc2ncn3c4ccc(O)cc4c(=O)c1c23 [Symadex, reference compound] . Is its EC50 below 10 nM?
Response line: 0.0

Prompt line: A record lists `O=c1c2c(NCCCN3CCOCC3)ccc3ncn(c4ccc5[nH]ncc5c14)c32` . Is its EC50 below 10 nM?
Response line: 0.0

Prompt line: A record lists CC(CCN1CCOCC1)Nc1ccc2ncn3c4ccc5[nH]ncc5c4c(=O)c1c23 (stereo not shown) . Is its EC50 below 10 nM?
Response line: 1.0

Prompt line: A record lists `CN(C)CCNc1ccc2ncn3c4ccc5[nH]ncc5c4c(=O)c1c23` . Is its EC50 below 10 nM?
Response line: 1.0
